I'd be grateful if you could share measured growth inhibition for these entries.
test summary: NCI Yeast Anticancer Drug Screen. Data for the rad50 strain (AID 155);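 further: 0% = growth of vehicle-only cultures of the same strain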
measurement context: S. cerevisiae rad50 strain growth inhibition; at 50.0 µM; hits give high values
About 79,000 compounds went through this panel and 15% of them were active in at least one assay; those are over-represented in the sample as a whole.
Only the number, expressed in %, is required.

// sample "C=CNC(=O)NC(=O)CSc1nnc(-c2ccccc2NC(=O)C(F)(F)F)c(=O)[nH]1" , its growth inhibition was 5.7

// sample "NNC(=O)NN1C(=O)c2cc(S(=O)(=O)O)cc3c(N)c(S(=O)(=O)O)cc(c23)C1=O" , its growth inhibition was 35.2

// sample COc1cc(C2CC(C)=C(C)CC2C(=O)O)cc(OC)c1OC (stereo not given) , its growth inhibition was 1.55

// sample "O=C(O)c1ccccc1C(=O)c1ccc(Br)cc1" , its growth inhibition was 8.4

// sample "COC(=O)C(O)(C(=O)OC)C1=C(N)C(=O)c2ccccc2C1=O" , its growth inhibition was 28.9

// sample CC[C@@]1(O)C[C@H](OC2CC(N(C)C)C(OC3CC(O)C(OC4CC(O)C(O)C(C)O4)C(C)O3)C(C)O2)c2c(cc3c(c2O)C(=O)c2c(O)ccc(O)c2C3=O)[C@H]1C(=O)OC (stereo not given in full) , its growth inhibition was -25.1

// sample "Cn1c(NC(=O)C(=O)NC23CC4CC(CC(C4)C2)C3)nc2ccccc21" , its growth inhibition was -1.9

// sample "Oc1cc(CN2CCOCCOCCOCCOCC2)c(O)cc1CN1CCOCCOCCOCCOCC1" , its growth inhibition was 7.85

// sample "Nc1nc(N)c2ncn(-c3ccc(Cl)cc3)c2n1" , its growth inhibition was -0.7

// sample COc1ccc(OC)c(C#N)c1C#N (tested in a mixture with another compound) , its growth inhibition was -25.1
